B1: Osa-1-4 twister ribozyme (parent)
chain: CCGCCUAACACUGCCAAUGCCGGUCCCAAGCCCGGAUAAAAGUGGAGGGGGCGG

variants of: B1; experiment: self-cleavage, relative activity (ratio to wild type); higher = more cleavage; co-transcriptional
Answer False if self-cleavage is under 0.1, and True if it is 0.1 or more.

>  <entry-sequence>
CCGCCUAACACAGCCAAUGCCGGUCCCAAGACCGGAUAAAAGUGGAGGGGGCGG [C31A U12A]

>  <category>
False

$$$$
>  <entry-sequence>
CCGCCUAACACUGCCAAUGCCGGUCCGAAGCCCGGAUCAAAGUGGAGGGGGCGG [A38C C27G]

>  <category>
False

$$$$
>  <entry-sequence>
CCGCCUAACACGGCCAAUGCCGGUCCCAAACCCGGAUAAAAGUGGAGGGGGCGG [G30A U12G]

>  <category>
False

$$$$

Read the next record carefully.
Query: // inclusive: self-cleavage at least 0.1? input: CCGCCUAACACUGCCCAUGCCGGUCCCAAGCCCGGAUAAAAGUAGAGGGGGCGG [A16C G44A]
Reply: True
